Data provenance: ChEMBL document CHEMBL4513216

measurement protocol: Toxicity liver stage against HepG2, at 10uM
Type: cell-based
Parameters: test concentration 10 uM, cell line HepG2-A16-CD81EGFP
stated conditions: human, HepG2-A16-CD81EGFP cells; read-out: INHIBITION
assay endpoint: cytotoxicity at 10 µM (%)
Please respond with the number in % and leave the unit unwritten.

// lookup cytotoxicity at 10 µM for `CN(Cc1cnn(C)c1)C(=O)Nc1cccnc1-n1cccn1` -1.32

// lookup cytotoxicity at 10 µM for `O=C1CN(c2ccc(CNC(=O)Nc3nccs3)cc2)CCN1` 1.93

// lookup cytotoxicity at 10 µM for COCC1CN(Cc2cnn(C)c2)Cc2nn(C)cc21 (stereo not drawn) -82.8

// lookup cytotoxicity at 10 µM for `Cn1ccnc1-c1cccc(NC(=O)NCCN2CCOCC2)c1` -7.85

// lookup cytotoxicity at 10 µM for CCc1nccn1-c1cccc(C2CCCN2)n1 (stereo not drawn) -5.77

// lookup cytotoxicity at 10 µM for `CN1C[C@@H](NC(=O)C2CC2)C[C@H]1c1nc(-c2cnccn2)no1` 0.611

// lookup cytotoxicity at 10 µM for Cc1ccc(N2CCOC(C)(C(=O)N(C)C)C2)nn1 (stereo not drawn) -4.43

// lookup cytotoxicity at 10 µM for `Cc1c(CN2CCc3nc4sccc4c(=O)n3CC2)cnn1C` -2.75

// lookup cytotoxicity at 10 µM for `O[C@@H]1CN(Cc2cccnc2)C[C@H]1Oc1ccccc1` -23.2

// lookup cytotoxicity at 10 µM for CCN(C(=O)NCc1cccnc1N(C)C)C(C)c1cccnc1 (stereo not drawn) -4.6

// lookup cytotoxicity at 10 µM for `Cc1ncsc1C(=O)NCCNC(=O)OC(C)(C)C` 4.73

// lookup cytotoxicity at 10 µM for `CCOc1ccc(-c2cc(CCN)ccc2OC)cc1` 1.63

// lookup cytotoxicity at 10 µM for `COc1ncccc1CN1C[C@H]2C[C@@H](C(=O)NCC3CC3)N(C)[C@H]2C1` -2.54

###

measurement protocol: Toxicity liver stage against HepG2, at 10uM
Type: cell-based
Parameters: test concentration 10 uM, cell line HepG2-A16-CD81EGFP
stated conditions: human, HepG2-A16-CD81EGFP cells; read-out: INHIBITION
assay endpoint: cytotoxicity at 10 µM (%)
Please respond with the number in % and leave the unit unwritten.

// lookup cytotoxicity at 10 µM for Cn1c(CCC(=O)N2CCCC3(CC2)CNC(=O)O3)nc2cccnc21 (centres undefined) -3.56

// lookup cytotoxicity at 10 µM for Cc1nn(C)c(C)c1C1CCCN1C(=O)CCCn1cccn1 (centres undefined) -0.685

// lookup cytotoxicity at 10 µM for `CN1CC[C@H](N(Cc2ccccc2)C2COC2)C[C@H](O)C1` 4.27

// lookup cytotoxicity at 10 µM for `Cn1cnc(S(=O)(=O)N2CCCCc3ccccc32)c1` -4.62

###

measurement protocol: Toxicity liver stage against HepG2, at 10uM
Assay type: cell-based
Design: test concentration 10 uM, cell line HepG2-A16-CD81EGFP
stated conditions: human, HepG2-A16-CD81EGFP cells; read-out: INHIBITION
assay endpoint: cytotoxicity at 10 µM (%)
Please respond with the number in % and leave the unit unwritten.

// lookup cytotoxicity at 10 µM for `O=C(CCN1CCCC1)Nc1c2c(cc3c1CCC3)CCC2` 6.3

// lookup cytotoxicity at 10 µM for `CC(C)COc1cncc(NCc2nnc3ccccn23)n1` 13.1

// lookup cytotoxicity at 10 µM for `Cc1nc(O)cc(CN2CC=C(c3cnn(C(C)(C)C)c3)CC2)n1` -7.17

// lookup cytotoxicity at 10 µM for COc1ccccc1N1CCC(N2CCOC(C(F)(F)F)C2)CC1 (configuration not stated) -1.45

// lookup cytotoxicity at 10 µM for CCNC(=O)NC(=O)CN1CCCC1c1nc(C2CCCCC2)co1 (configuration not stated) 8.08

// lookup cytotoxicity at 10 µM for `Cc1ccc(C(=O)N2CCN(Cc3cccs3)CC2)n1C` -5.37

// lookup cytotoxicity at 10 µM for `Cc1nn(C(C)C)c(C)c1S(=O)(=O)Nc1cccc(F)c1` -0.335
